# Test system: ACHN
# assay.notes: NCI tumour cell line growth inhibition, 48 h
The source made the active and inactive calls. No stated cut-off is given here; in the data, active = GI50 up to about 1.1 µM and inactive = higher.
measurement.name: GI50

Which measured GI50 value corresponds to O=C1Nc2cccc(Cl)c2/C1=C\c1c(Cl)nc2n1CCS2 ?
> 100 µM (inactive)

# input compound: CCN(CC)CCCC(C)NC(=O)c1cc(-c2nccn2C)nc2ccc(C)cc12 (stereo unspecified) ; wanted: its GI50
> 100 µM (inactive)

# query: GI50 of entry O=Cc1cc2c(o1)C(=O)c1ccccc1C2=O
1.98 µM (inactive)

Name the recorded GI50 for CC1=CC(C)(C)[C@H]2O[C@@]3(O)C[C@]4(C)[C@H]5C[C@@](C(C)C)(O[C@H]4c4ccoc4)O[C@H]4[C@]5(C3)O[C@@]1(O)[C@]24O .
> 100 µM (inactive)

Sample Cc1ccccc1NC(=O)Cc1csc(N/N=C2\NC(=O)/C(=C/c3cccc([N+](=O)[O-])c3)S2)n1 — what was its GI50?
15.6 µM (inactive)

For COc1ccc(CCNC(=O)[C@H]2CCCC[C@@H]2CCO)cc1OC , what is its reported GI50?
> 100 µM (inactive)

# get_value(readout='GI50', item= COc1cc2c3c(n(C)c(=O)c2cc1OC)-c1cc2c(cc1/C3=C\CCCCCBr)OCO2 )
4.39 µM (inactive)

Dear colleague, I am looking for the recorded GI50 of the following compound: Cc1cc2c(c(C(=O)NCC(=O)O)c1)Oc1c(cc(C)cc1C(=O)NCC(=O)O)S2
> 100 µM (inactive)

Form field: reported GI50 of Cn1c2c(c3ccccc31)CCN(CCN1CCN(c3ccccc3)CC1)C2=O
> 100 µM (inactive)

What value of measured GI50 is listed for NC1=Nc2ccccc2Sc2cccc(F)c21 ?
> 100 µM (inactive)

Requested read-out: GI50. Entry: O=[N+]([O-])c1ccc(C2Nn3c(nnc3-c3cccc([N+](=O)[O-])c3)S2)cc1 (stereo unspecified)
> 100 µM (inactive)

Give its GI50 value. Item: CC1OC2(CC(OCc3ccccc3)C1OCc1ccccc1)OCCO2 (stereo unspecified)
61.8 µM (inactive)

What does the record list as GI50 for CCC(C)NC(=S)N/N=C(\C)c1ccccn1 (stereo unspecified) ?
< 0.01 µM (active)

Would you mind telling me what GI50 value was observed for Cc1ccc2nc3n(c2c1)C(c1c(F)cccc1F)SC3 (stereo unspecified) ?
> 100 µM (inactive)

Item under review: Cc1cc(N(CCC#N)CCC#N)ccc1C(/N=N/c1ccc(C(=O)O)cc1)=N\NC(=O)c1ccccc1 . Reported GI50?
59.7 µM (inactive)

# get_value(readout='GI50', item= CCOC(OC1=C(C#N)CCCC1)C(CC)[Se]c1ccccc1 (stereo unspecified) )
30.1 µM (inactive)

For the compound shown here, O=C1NC(=O)[C@@H](OCC2CCCCC2)[C@@H]2OCC3OC(C(O)C3O)C12 (stereo partly specified) , give the reported GI50.
> 100 µM (inactive)

Can you share its GI50? I mean this compound: CN1CCN(/C(N)=C(\C#N)C(=O)Nc2ccccc2)CC1
> 100 µM (inactive)

Consider the compound COc1ccc2[nH]c3c(cnn4cnnc34)c2c1 and give its measured GI50.
> 100 µM (inactive)

Give the measured GI50 of Cc1ccc(S(=O)(=O)c2c(N)c3nc4ccccc4n3c3nc4ccccc4nc23)cc1 .
> 100 µM (inactive)

Which measured GI50 value corresponds to CC(=O)O[C@@]12CO[C@@H]1CC(O)[C@@]1(C)C(=O)[C@H](O)C3=C(C)C(O)C[C@@](O)(C(OC(=O)c4ccccc4)C12)C3(C)C (stereo partly specified) ?
51.2 µM (inactive)

# query: GI50 of entry CC(/C=C/C(=O)c1sc(C(N)=S)nc1C)=C\c1ccccc1
81.8 µM (inactive)

Dear colleague, I am looking for the recorded GI50 of the following compound: C=CC[P@]1(=O)O[C@H](c2ccccc2)C(C)N1C(C)C (stereo partly specified)
> 100 µM (inactive)

Quick one: GI50 of COc1ccc2c(c1)C(O)(C(F)(F)F)c1cc(C(=O)C(F)(F)F)c3ccccc3c1N2 (stereo unspecified) ?
5.47 µM (inactive)

Please report the recorded GI50 for C=CCN(c1cc(OCc2ccccc2)c(NC(C)=O)cc1[N+](=O)[O-])S(C)(=O)=O .
52.7 µM (inactive)

Can you look up the measured GI50 of Cn1c(=O)c2nc(CCCCc3nc4c(=O)n(C)c(=S)n(C)c4[nH]3)[nH]c2n(C)c1=S for me?
> 100 µM (inactive)

Fill in: GI50 of O=[Se](O)O is ___
4 µM (inactive)

Recorded GI50 of CCN(CC)CCNC(=O)c1ccc(C)c(OCc2ccccc2)c1[N+](=O)[O-] , please.
56.8 µM (inactive)

Field request: GI50 | item: O=C1C=C(N2CCN(c3ncccn3)CC2)C(=O)c2c(O)ccc(O)c21
> 100 µM (inactive)

Looking for the measured GI50 of CC(NNC(=O)c1cc[n+]([BH2-]C#N)cc1)c1cccc(C(F)(F)F)c1 (stereo unspecified) , can you help?
> 100 µM (inactive)

# GI50 lookup, item O=c1[nH]c(=O)n(C2CC(O)C(CO)O2)cc1C(F)(C(F)(F)F)C(F)(F)F (stereo unspecified)
> 100 µM (inactive)

Given the compound CN(C)CCn1c(=O)nc2c3c(c([N+](=O)[O-])ccc31)Nc1ccc(O)cc1-2 , what is its reported GI50?
3.44 µM (inactive)

GET /values?readout=GI50&item= CC(C)=NNC(=S)NC12CC3CC(CC(C3)C1)C2
> 100 µM (inactive)

Entry CC1(c2ccccc2)N=c2[nH]cnc2=C(C(N)=O)N1 (stereo unspecified) has what GI50?
> 100 µM (inactive)

# GI50 lookup, item CC(=O)C(C(=O)C(C)(C)C)C(=O)C(C)(C)C
> 100 µM (inactive)

Item under review: CCC1(CC)C(=O)NN(C(=O)c2ccccc2)C1=O . Reported GI50?
> 100 µM (inactive)

Record request: GI50 value, item CCCC(=O)Nc1cc(C(=O)N2C[C@@H]3C[C@]34C2=CC(=O)c2[nH]cc(C)c24)n(COC)c1
5.93 µM (inactive)

Need GI50 of CCOC(=O)C12CCCC1(O)N(NC(=O)c1ccccc1)C(C)=C2C(=O)OC (stereo unspecified) , thanks.
> 100 µM (inactive)

State the recorded GI50 for this entry: CCOC(=O)C(Cc1ccccc1)NC(=O)OC(C)(C)C (stereo unspecified)
> 100 µM (inactive)

Which GI50 is listed for CC(C)c1ccc2c(c1)/C(=C1/Nc3ccccc3C1=O)C(=O)N2 ?
3.71 µM (inactive)

# query: GI50 of entry OCC1C2CCC3(OCCO3)C12 (stereo unspecified)
> 100 µM (inactive)
